Hello, the source for this data is PubChem BioAssay (NCI), in case you need it.

- System: SF-539 CNS
- assay.comment: NCI tumour cell line growth inhibition, 48 h
value.kind: TGI (µM)
State just the number; it will be interpreted in µM.

Query the reported TGI for SF-539 CNS; item: `COc1ccc(CCc2cc(OC)c(OC)c(OC)c2)cc1`
0.146

Tell me reported TGI for `Nc1ncnc2c1ncn2Cc1cccc(CCl)c1` , tested with SF-539 CNS.
33.4

# query: TGI | item `OCNCCNc1nc2ccccc2c2[nH]c3ccccc3c12` | system: SF-539 CNS
0.863

Give recorded TGI with SF-539 CNS for the following molecule: `COC(=O)c1c(C)nc(C)c(NO)c1-c1ccccc1C(F)(F)F`
38.6

---

- Tested on: A549 NSCLC
- assay.comment: NCI tumour cell line growth inhibition, 48 h
Kindly state TGI for each of the entries shown.

Look up TGI for this compound: `CCOP(=O)(Nc1ccc2oc(=O)c3ccccc3c2c1)OCC`
> 100 µM

Any idea what its TGI is? The compound is CC1CC2(C)CC(=O)C1C1C(=O)N(CCN3CCCCC3)C(=O)C12 (stereo not given)
> 100 µM

Need TGI of `CSc1ccc(C(=O)C(=O)c2ccc(SC)s2)s1` , thanks.
> 10 µM

Dear colleague, I am looking for the recorded TGI of the following compound: `COC(=O)c1c(-c2ccc(Cl)cc2)cc2c3ccccc3n(C)c2c1C(=O)OC`
> 100 µM

Would you kindly share the measured TGI for `N[C@@H]1CCCC[C@@H]1N.O=P([O-])([O-])CN(CP(=O)([O-])[O-])CP(=O)([O-])[O-].[Pt+2]` ?
> 100 µM

Recorded TGI for `CCSC(SCC)=C1C(=O)N(c2ccccc2)N=C1C` , please?
35.1 µM

Report TGI for `S=c1nc(-c2ccnc(-c3nc(=S)[nH][nH]3)c2)[nH][nH]1` please.
> 100 µM

Reported TGI, compound `CCN(CC)c1nc(N(C)C)c2ccccc2n1` : ____
> 100 µM

For COc1ccc(C(O)CC(O)(C(F)(F)F)C(F)(F)F)cc1 (stereo not given) , what is its reported TGI?
> 100 µM

Quick one: TGI for `C=C1C(=O)O[C@H]2[C@H]3O[C@@H](C[C@@H]12)[C@](C)(O)CC[C@@H]1O[C@@]1(C)CCC[C@H]3C` ?
> 100 µM

---

- System: SK-MEL-2 melanoma
- assay.comment: NCI tumour cell line growth inhibition, 48 h
value.kind: TGI

What reported TGI corresponds to O=[N+]([O-])c1ccc(C(Nc2ccccc2)c2ccc3cccnc3c2O)cc1 (stereo not given) on SK-MEL-2 melanoma?
> 100 µM

# value lookup — system SK-MEL-2 melanoma, readout TGI, item `Cc1cc(Cl)ccc1NS(=O)(=O)c1ccc(-c2cnc(C3CC3)o2)cc1`
22 µM

Value wanted: TGI (SK-MEL-2 melanoma) of entry `CC(=O)Oc1ccc(/C=N/NC(N)=S)nc1`
> 100 µM

Short answer please: TGI, SK-MEL-2 melanoma, entry `COc1ccc(CCN2CCc3c(C)c(C#N)c4nc5ccccc5n4c32)cc1OC`
44.7 µM

What measured TGI is associated with C[C@@H]1C[C@]2(C[C@@H](C)C3[C@@H](CC4(C)[C@@H]5CCC6C(C)(C)OC(=O)C=C[C@]67C[C@@]5(CC[C@]34C)OO7)O2)OC1=O (stereo not given in full) on SK-MEL-2 melanoma?
> 100 µM

Query the reported TGI for SK-MEL-2 melanoma; item: `COc1ccccc1CNCCCCCCCCCCCCN1C(=O)c2ccc3c4c(ccc(c24)C1=O)C(=O)N(CCCCCCCCCCCCNCc1ccccc1OC)C3=O`
> 50 µM

Query the reported TGI for SK-MEL-2 melanoma; item: COc1ccc(C(O)CC(O)(C(F)(F)F)C(F)(F)F)cc1 (stereo not given)
40.8 µM

Form entry - test system: SK-MEL-2 melanoma; read-out: TGI; molecule: `OCNCCNc1nc2ccccc2c2[nH]c3ccccc3c12`
24 µM

Item CCOC(=O)c1cnccc1CC1(C#N)c2ccccc2C=CN1C(=O)c1ccccc1 (stereo not given) with SK-MEL-2 melanoma - TGI?
41.4 µM

Form: Entry = `Cc1csc(NC(=NCCN2CCOCC2)Nc2nc(C)cs2)n1` | System = SK-MEL-2 melanoma | TGI = ____
> 100 µM

Entry `CN1CCc2c1nc(-c1ccc([N+](=O)[O-])cc1)c1c2N(C)CC1` , system SK-MEL-2 melanoma: what TGI was measured?
> 100 µM

Any idea what TGI came out for COc1ccc(OC)c2c3c(ccc12)C(c1ccccc1)OC3=O (stereo not given) on SK-MEL-2 melanoma?
> 100 µM

Record `CC(NC(=O)c1ccccc1)(C(=O)O)C(=O)O` : what is its TGI with SK-MEL-2 melanoma?
> 100 µM

For the record `O=[N+]([O-])c1cccnc1-n1cnc2ccccc21` , what value of TGI is listed for SK-MEL-2 melanoma?
> 100 µM

Hi! What's the reported TGI for C/C=C1\C(=O)OC2CCN3CCC(COC(=O)C(C)(O)C(C)C1O)C23 (stereo not given) on SK-MEL-2 melanoma?
> 100 µM

Tell me reported TGI for CCOC(=O)C1(C(F)(F)F)N=C(CC)OC(N2CCOCC2)=N1 (stereo not given) , tested with SK-MEL-2 melanoma.
> 100 µM

I'm curious: which TGI was measured for C=CC1CN2CCC1CC2C(O)c1ccnc2ccccc12 (stereo not given) tested on SK-MEL-2 melanoma?
> 100 µM

What is its TGI for SK-MEL-2 melanoma? Entry: `COC(=O)[C@@H]1CN(C(=O)c2ccccc2)C(=O)N1C(=O)OCc1ccccc1`
> 100 µM

// lookup TGI | system=SK-MEL-2 melanoma | key= COC(=O)C1=C(O)C(C(=O)OC)[C@]2(O)[C@H](C(=O)OC)[C@H]1C[C@@H](c1ccc([N+](=O)[O-])cc1)[C@H]2C(=O)OC (stereo not given in full)
46.6 µM

// lookup TGI | system=SK-MEL-2 melanoma | key= `Nc1nc(Cl)cc(NCC2(O)CCCC2)n1`
> 100 µM

Under SK-MEL-2 melanoma: TGI value of CC1=C(C(=O)Nc2ccc(Cl)c(Cl)c2)C(c2ccccc2O)NC(=O)N1 (stereo not given) ?
> 50 µM

Quick check: TGI on SK-MEL-2 melanoma, item `O=S(=O)(c1ccc(O)c(C=Nc2ccc(Cl)cc2)c1)c1ccc(O)c(C=Nc2ccc(Cl)cc2)c1` ?
> 100 µM

Give the reported TGI for `O=C1c2ccccc2C(=O)c2nc3ccc(Cl)cc3cc21` (system: SK-MEL-2 melanoma).
> 100 µM

Please provide the recorded TGI for CC(=O)C1C(=O)N(C(C)C)C[C@@H]2CCC(=O)C[C@H]12 (stereo not given in full) , tested on SK-MEL-2 melanoma.
> 100 µM

Can you look up TGI on SK-MEL-2 melanoma for `O=C1CN(/N=C/c2ccc(-c3ccc(F)cc3)o2)C(=O)N1` ?
> 100 µM

I'm curious: which TGI was measured for `C=[CH][Sn]([CH]=C)([O]c1cccc2cccnc12)[O]c1cccc2cccnc12` tested on SK-MEL-2 melanoma?
7.87 µM

Form field: TGI recorded for `CC1(C)CC[C@]2(C(N)=O)CC[C@]3(C)C(=CC[C@@H]4[C@@]5(C)C/C(=C/c6ccncc6)C(=O)C(C)(C)[C@@H]5CC[C@]43C)[C@@H]2C1` with SK-MEL-2 melanoma (enter value)
3.97 µM

Identify the measured TGI of CO[C@@]12[C@@H]3NC3CN1C1=C(C(=O)C(N)=C(C)C1=O)[C@@H]2COC(N)=O (stereo not given in full) for SK-MEL-2 melanoma.
4.41 µM

Test system SK-MEL-2 melanoma; read-out TGI; what value for C#CCC1(C(=O)OCC)C(=O)c2ccccc2N(C)C1=O (stereo not given) ?
> 100 µM

What TGI appears in the records for this molecule with SK-MEL-2 melanoma? C[C@]12CC[C@H](OC3CCCCO3)CC1=CC[C@@H]1C2CC[C@]2(C)/C(=N/O)CCC12 (stereo not given in full)
89.7 µM

Reported TGI for SK-MEL-2 melanoma, given `Cc1ccc(/C(O)=C/c2nc3ccc([N+](=O)[O-])cc3nc2/C=C(\O)c2ccc(C)cc2)cc1` ?
> 100 µM

Return TGI measured with SK-MEL-2 melanoma given this molecule: `N#Cc1nc(C#N)n(C(=O)c2ccccc2)c1NC(=O)c1ccccc1`
> 100 µM

For SK-MEL-2 melanoma, provide TGI of `CCOC(=O)c1cn(C)c(=S)n2c1nc1ccccc12` please.
> 100 µM

SK-MEL-2 melanoma / TGI / `Nc1ncnc2c1ncn2Cc1cccc(CCl)c1` : value?
31.9 µM

Item `Cc1ccc(S(=O)(=O)n2cc(C#N)c(C#N)c2)cc1` with SK-MEL-2 melanoma - TGI?
52 µM

State its TGI on SK-MEL-2 melanoma: CCOC(=O)C1CCCCN1CCc1c[nH]c2ccccc12 (stereo not given)
> 100 µM

Item `CC(=O)CC(=O)CCC(=O)O` with SK-MEL-2 melanoma - TGI?
> 100 µM

Tell me reported TGI for COC(=O)CC(C(C(C)=O)C(=O)OCc1ccccc1)N1C(=O)OCC1c1ccccc1 (stereo not given) , tested with SK-MEL-2 melanoma.
> 100 µM

Please tell me: TGI of `COc1ccc(S(=O)(=O)N(C)CC(=O)O)cc1` , system SK-MEL-2 melanoma?
> 100 µM

I'm curious: which TGI was measured for `CO[C@]1(CN2CCN3CCCC[C@@H]3C2)/C=C/C[C@H](C)[C@@H](C)S(=O)(=O)NC(=O)c2ccc3c(c2)N(C[C@@H]2CC[C@H]21)C[C@@]1(CCCc2cc(Cl)ccc21)CO3` tested on SK-MEL-2 melanoma?
0.183 µM
